# Tested on: 699152-130-R-J1-PDC complex spheroid growth
# assayProcedure: Anticancer human tumor 699152-130-R-J1-PDC patient-derived pancreatic carcinoma cell line growth inhibition [AhR]
# conditionDescription: curve of first compound; second compound 10 µM
measurementType: IC50

molecule="Nc1ncn(C2CC(O)C(CO)O2)c(=O)n1 (configuration not stated) + Cc1ccccc1N=Nc1ccc(NC(=O)c2ccnn2C)c(C)c1" measurementtype=IC50 measvalue="> 1000 nM"
molecule="CC(C)CC(NC(=O)C(Cc1ccccc1)NC(=O)c1cnccn1)B(O)O (configuration not stated) + CC(CO)NC(=O)c1cc(-c2ccc(Cl)cc2)nn(-c2cnn(C)c2)c1=O" measurementtype=IC50 measvalue="5.13 nM"
molecule="CC[C@@]1(O)C(=O)OCc2c1cc1n(c2=O)Cc2cc3c(CN(C)C)c(O)ccc3nc2-1 + CC(CO)NC(=O)c1cc(-c2ccc(Cl)cc2)nn(-c2cnn(C)c2)c1=O" measurementtype=IC50 measvalue="> 100 nM"
molecule="Nc1ncn(C2CC(O)C(CO)S2)c(=O)n1 (configuration not stated) + Cc1cncc(-c2nc(NCCc3c[nH]c4ccccc34)c3ncn(C(C)C)c3n2)c1" measurementtype=IC50 measvalue="< 0.949 nM"
molecule="Nc1ncn(C2CC(O)C(CO)S2)c(=O)n1 (configuration not stated) + Cc1ccccc1N=Nc1ccc(NC(=O)c2ccnn2C)c(C)c1" measurementtype=IC50 measvalue="> 300 nM"
molecule="Cn1ncnc1C1c2n[nH]c(=O)c3cc(F)cc(c23)NC1c1ccc(F)cc1 (configuration not stated) + CC(CO)NC(=O)c1cc(-c2ccc(Cl)cc2)nn(-c2cnn(C)c2)c1=O" measurementtype=IC50 measvalue="> 100 nM"

IC50 of Nc1ccn(C2OC(CO)C(O)C2(F)F)c(=O)n1 (configuration not stated) + CC(CO)NC(=O)c1cc(-c2ccc(Cl)cc2)nn(-c2cnn(C)c2)c1=O , assay on 699152-130-R-J1-PDC complex spheroid growth, is 9150 nM

* * *

# Test system: 699152-130-R-J1-PDC complex spheroid growth
# assayProcedure: Anticancer human tumor 699152-130-R-J1-PDC cell line growth inhibition [AhR]; active means viability on the fitted dose curve at most 10% of control; inactive means the rest;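 note: compound exposure lasted 7 days after spheroids had grown for 3 days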
# conditionDescription: second compound 10 µM; first compound 0.0316 µM
Log the outcome using a class from YES for active, NO for inactive

Sample answers from the record:
molecule="Nc1ccccc1NC(=O)c1ccc(CNC(=O)OCc2cccnc2)cc1 + CC(CO)NC(=O)c1cc(-c2ccc(Cl)cc2)nn(-c2cnn(C)c2)c1=O" classassignment=NO
molecule="COc1cc(Nc2ncc3c(n2)-c2ccc(Cl)cc2C(c2c(F)cccc2OC)=NC3)ccc1C(=O)O + CC(CO)NC(=O)c1cc(-c2ccc(Cl)cc2)nn(-c2cnn(C)c2)c1=O" classassignment=NO
molecule="CC1COCCN1c1cc(-c2ccnn2C)c2ccnc(-c3ccn[nH]3)c2n1 (configuration not stated) + Cc1cncc(-c2nc(NCCc3c[nH]c4ccccc34)c3ncn(C(C)C)c3n2)c1" classassignment=YES
molecule="O=C(c1cc(Cc2n[nH]c(=O)c3ccccc23)ccc1F)N1CCN(C(=O)C2CC2)CC1 + Cc1ccccc1N=Nc1ccc(NC(=O)c2ccnn2C)c(C)c1" classassignment=NO
molecule="Nc1ccn(C2OC(CO)C(O)C2(F)F)c(=O)n1 (configuration not stated) + CC(CO)NC(=O)c1cc(-c2ccc(Cl)cc2)nn(-c2cnn(C)c2)c1=O" classassignment=NO

Identify the outcome logged in this assay for the molecule shown: O=C(C=Cc1cccc(S(=O)(=O)Nc2ccccc2)c1)NO + Cc1cncc(-c2nc(NCCc3c[nH]c4ccccc34)c3ncn(C(C)C)c3n2)c1
NO

Which outcome was entered for the molecule CC1COCCN1c1cc(C2(S(C)(=N)=O)CC2)nc(-c2ccnc3[nH]ccc23)n1 (configuration not stated) + Cc1ccccc1N=Nc1ccc(NC(=O)c2ccnn2C)c(C)c1 in this test?
NO

Which result was noted for this molecule in the test: COc1cc(C2c3cc4c(cc3C(OC3OC5COC(C)OC5C(O)C3O)C3COC(=O)C23)OCO4)cc(OC)c1O (configuration not stated) + Cc1cncc(-c2nc(NCCc3c[nH]c4ccccc34)c3ncn(C(C)C)c3n2)c1
YES

For this molecule, state the assay outcome: Nc1ncn(C2CC(O)C(CO)O2)c(=O)n1 (configuration not stated) + CC(CO)NC(=O)c1cc(-c2ccc(Cl)cc2)nn(-c2cnn(C)c2)c1=O
NO

What outcome does the record of this test show for Nc1ncn(C2CC(O)C(CO)O2)c(=O)n1 (configuration not stated) + Cc1cncc(-c2nc(NCCc3c[nH]c4ccccc34)c3ncn(C(C)C)c3n2)c1 ?
YES

Dear all, I need the recorded test outcome for CC1(C)CCC(CN2CCN(c3ccc(C(=O)NS(=O)(=O)c4ccc(NCC5CCOCC5)c([N+](=O)[O-])c4)c(Oc4cnc5[nH]ccc5c4)c3)CC2)=C(c2ccc(Cl)cc2)C1 + Cc1ccccc1N=Nc1ccc(NC(=O)c2ccnn2C)c(C)c1 , thank you.
NO

What classification did Nc1ccn(C2OC(CO)C(O)C2(F)F)c(=O)n1 (configuration not stated) + Cc1ccccc1N=Nc1ccc(NC(=O)c2ccnn2C)c(C)c1 end up with in this test?
NO
